experiment: qHTS of pediatric cancer cell lines to identify multiple opportunities for drug repurposing: Primary screen for BT-12 cells (AID 1347101); conditions: BT-12 viability, CellTiter-Glo luminescence, 48 h; series mostly up to 57.3 µM; also: nearly all actives have a fitted effect of over 25% in size
Results filed as inconclusive are left out. Calls of active or inactive are those of the source. Calls follow the shape of the dose curve; as a rule, active = well fitted cell-killing curve with a large enough effect; inconclusive = small, poorly fitted or top-dose-only effect; inactive = flat fitted curve, though single readings scatter.
Classes used: active, inactive

- compound: "NC(CO)C(=O)NNCc1ccc(O)c(O)c1O (configuration not stated)"
  class.name: "inactive"
- compound: "CC12CC3CC(C)(C1)CC(N)(C3)C2"
  class.name: "inactive"
- compound: "O=C(c1ccc(F)cc1)C1CCN(CCn2c(=O)[nH]c3ccccc3c2=O)CC1"
  class.name: "inactive"
- compound: "CN1CCN(C2=Nc3cc(Cl)ccc3Nc3ccccc32)CC1"
  class.name: "inactive"
- compound: "Fc1ccc([C@@H]2CCNC[C@H]2COc2ccc3c(c2)OCO3)cc1"
  class.name: "inactive"
- compound: "CN1CCC(=C2c3ccccc3CC(=O)c3sccc32)CC1"
  class.name: "inactive"
- compound: "CC1COc2c(N3CCN(C)CC3)c(F)cc3c(=O)c(C(=O)O)cn1c23 (configuration not stated)"
  class.name: "inactive"
- compound: "CC(=O)OCC(CCn1cnc2cnc(N)nc21)COC(C)=O"
  class.name: "inactive"
- compound: "Cc1cc(C(C)(C)C)c(O)c(C)c1CC1=NCCN1"
  class.name: "inactive"
- compound: "COc1cc2nc(N(C)CCCNC(=O)C3CCCO3)nc(N)c2cc1OC (configuration not stated)"
  class.name: "inactive"
- compound: "Nc1c2c(nc3ccccc13)CCCC2"
  class.name: "inactive"
- compound: "CN1C(C(=O)Nc2ccccn2)=C(O)c2ccccc2S1(=O)=O"
  class.name: "inactive"
- compound: "Cc1ccc(-c2cc(C(F)(F)F)nn2-c2ccc(S(N)(=O)=O)cc2)cc1"
  class.name: "inactive"
- compound: "CN1C2CCC1CC(OC(=O)C(CO)c1ccccc1)C2 (configuration not stated)"
  class.name: "inactive"
- compound: "Cn1c(=O)c2c(ncn2C)n(C)c1=O"
  class.name: "inactive"
- compound: "CC(C)C(=O)Nc1ccc([N+](=O)[O-])c(C(F)(F)F)c1"
  class.name: "active"
- compound: "NC(=O)OCC(COC(N)=O)c1ccccc1"
  class.name: "inactive"
- compound: "Cc1ccccc1N1C(=O)c2cc(S(N)(=O)=O)c(Cl)cc2NC1C (configuration not stated)"
  class.name: "inactive"
- compound: "COc1ccc(CCN(C)CCCC(C#N)(c2ccc(OC)c(OC)c2)C(C)C)cc1OC (configuration not stated)"
  class.name: "inactive"
- compound: "Clc1ccc2nsnc2c1NC1=NCCN1"
  class.name: "inactive"
- compound: "CC#C[C@]1(O)CC[C@H]2[C@@H]3CCC4=CC(=O)CCC4=C3[C@@H](c3ccc(N(C)C)cc3)C[C@@]21C"
  class.name: "active"
- compound: "COc1cc2nc(N3CCN(C(=O)c4ccco4)CC3)nc(N)c2cc1OC"
  class.name: "active"
- compound: "CN1CCN2c3ccccc3Cc3ccccc3C2C1 (configuration not stated)"
  class.name: "inactive"
- compound: "Nc1ccn([C@H]2CC[C@@H](CO)O2)c(=O)n1"
  class.name: "inactive"
- compound: "CN1CCN(CCCN2c3ccccc3Sc3ccc(Cl)cc32)CC1"
  class.name: "active"
- compound: "NCCc1cnc[nH]1"
  class.name: "inactive"
- compound: "C[C@H]1c2cccc(O)c2C(O)=C2C(=O)[C@]3(O)C(O)=C(C(N)=O)C(=O)[C@@H](N(C)C)[C@@H]3[C@@H](O)[C@@H]21"
  class.name: "active"
- compound: "CCC1(c2ccccc2)C(=O)NCNC1=O"
  class.name: "inactive"
- compound: "CC(C)(C)C(=O)Oc1ccc(S(=O)(=O)Nc2ccccc2C(=O)NCC(=O)O)cc1"
  class.name: "inactive"
- compound: "OCCN1CCN(CCCN2c3ccccc3Sc3ccc(C(F)(F)F)cc32)CC1"
  class.name: "active"
- compound: "CC(C)NCC(O)COc1ccc(CCOCC2CC2)cc1 (configuration not stated)"
  class.name: "inactive"
- compound: "NCCCCCC(=O)O"
  class.name: "inactive"
- compound: "CN(C)c1nc(N(C)C)nc(N(C)C)n1"
  class.name: "inactive"
- compound: "Cn1ccc2cc3c(cc21)CCN3C(=O)Nc1cccnc1"
  class.name: "inactive"
- compound: "COc1ccc(C2CNC(=O)C2)cc1OC1CCCC1 (configuration not stated)"
  class.name: "inactive"
- compound: "Clc1ccc(C(c2ccccc2Cl)C(Cl)Cl)cc1 (configuration not stated)"
  class.name: "inactive"
- compound: "COc1ccccc1N1CCN(CC(O)COc2cccc3ccccc23)CC1 (configuration not stated)"
  class.name: "inactive"
- compound: "N[C@@H](Cc1c[nH]c2ccc(O)cc12)C(=O)O"
  class.name: "inactive"
- compound: "O=c1c(-c2ccc(O)cc2)coc2cc(O)cc(O)c12"
  class.name: "inactive"
- compound: "NS(=O)(=O)c1cc2c(cc1Cl)NCNS2(=O)=O"
  class.name: "inactive"
- compound: "Cn1c(=O)c2[nH]cnc2n(C)c1=O"
  class.name: "inactive"
- compound: "CCOC(=O)c1ncn2c1CN(C)C(=O)c1cc(F)ccc1-2"
  class.name: "inactive"

* * *

assay: qHTS for Inhibitors of ATXN expression: Validation (AID 588378); settings: cell-based ATXN2 expression reporter assay, luminescence; series mostly up to 57.1 µM; also: nearly all actives have a fitted effect of over 75% in size
Results filed as inconclusive are left out. Calls of active or inactive are those of the source. Calls follow the shape of the dose curve; as a rule, active = well fitted inhibition curve with a large enough effect; inconclusive = small, poorly fitted or top-dose-only effect; inactive = no such curve, though single readings can be large or run the other way.
Classes used: active, inactive

- compound: "CCOC(=O)C(C)(C)Oc1ccc(Cl)cc1"
  class.name: "inactive"
- compound: "CC12CC3CC(C)(C1)CC(N)(C3)C2"
  class.name: "inactive"
- compound: "Cc1cnc(C(=O)NCCc2ccc(S(=O)(=O)NC(=O)NC3CCCCC3)cc2)cn1"
  class.name: "inactive"
- compound: "O=c1c(-c2ccc(O)cc2)coc2cc(O)cc(O)c12"
  class.name: "inactive"
- compound: "COc1ccc(C2CNC(=O)C2)cc1OC1CCCC1 (stereo unspecified)"
  class.name: "inactive"
- compound: "CC(C)(Oc1ccc(C2CC2(Cl)Cl)cc1)C(=O)O (stereo unspecified)"
  class.name: "inactive"
- compound: "NC(CO)C(=O)NNCc1ccc(O)c(O)c1O (stereo unspecified)"
  class.name: "inactive"
- compound: "CNCCCC12CCC(c3ccccc31)c1ccccc12"
  class.name: "active"
- compound: "CC(C)Cc1ccc(C(C)C(=O)O)cc1 (stereo unspecified)"
  class.name: "inactive"
- compound: "CCC1(c2ccccc2)C(=O)NCNC1=O"
  class.name: "inactive"
- compound: "NCCS(=O)(=O)O"
  class.name: "inactive"

* * *

experiment: Quantitative High-Throughput drug screen in 47 multiple myeloma cell lines against the NCATS MIPE library collection: ARP1_JJKsccF8 cell viability assay (AID 1918928; also: nearly all actives have a fitted effect of over 40% in size; also: potency is read from the fitted curve at half-maximal effect); settings: ARP1 myeloma cells viability, CellTiter-Glo ATP, 48 h; series mostly up to 45.8 µM
Records with an inconclusive call do not appear. Activity calls are given as the source filed them. The call rests on the fitted dose curve; in most records, active means well fitted cell-killing curve with a large enough effect; inconclusive means small, poorly fitted or top-dose-only effect, or effect the other way; inactive means no such curve, though single readings can be large or run the other way.
reported.endpoint: Potency

- compound: "CS(=O)(=O)Nc1ccc([N+](=O)[O-])cc1Oc1ccccc1"
  reported.endpoint: "Potency"
  readout.value: "11.8 µM (active)"
- compound: "Cc1ccccc1N1C(=O)c2cc(S(N)(=O)=O)c(Cl)cc2NC1C (configuration not stated)"
  reported.endpoint: "Potency"
  readout.value: "inactive"
- compound: "CC(C)Cc1ccc(C(C)C(=O)O)cc1 (configuration not stated)"
  reported.endpoint: "Potency"
  readout.value: "inactive"
- compound: "NCCc1cnc[nH]1"
  reported.endpoint: "Potency"
  readout.value: "inactive"
- compound: "O=C(C1CCCCC1)N1CC(=O)N2CCc3ccccc3C2C1 (configuration not stated)"
  reported.endpoint: "Potency"
  readout.value: "inactive"
- compound: "O=C(CCCN1CCC(O)(c2ccc(Cl)cc2)CC1)c1ccc(F)cc1"
  reported.endpoint: "Potency"
  readout.value: "23.5 µM (active)"
- compound: "Cc1cc(C(C)(C)C)c(O)c(C)c1CC1=NCCN1"
  reported.endpoint: "Potency"
  readout.value: "inactive"
- compound: "CCOC(=O)c1ncn2c1CN(C)C(=O)c1cc(F)ccc1-2"
  reported.endpoint: "Potency"
  readout.value: "16.6 µM (active)"
- compound: "COc1ccccc1N1CCN(CC(O)COc2cccc3ccccc23)CC1 (configuration not stated)"
  reported.endpoint: "Potency"
  readout.value: "9.35 µM (active)"
- compound: "COC(=O)Nc1nc2ccc(C(=O)c3cccs3)cc2[nH]1"
  reported.endpoint: "Potency"
  readout.value: "0.0042 µM (active)"
- compound: "CN1CCN(CCCN2c3ccccc3Sc3ccc(Cl)cc32)CC1"
  reported.endpoint: "Potency"
  readout.value: "20.9 µM (active)"
- compound: "Cc1cn([C@H]2C[C@H](N=[N+]=[N-])[C@@H](CO)O2)c(=O)[nH]c1=O"
  reported.endpoint: "Potency"
  readout.value: "inactive"
